Hello, the source for this data is PubChem BioAssay (NCI), in case you need it.

Consider the following compounds and their measured growth readings.
# System: SK-OV-3 ovarian
# Assay notes: NCI-60 one-dose screen, 48 h (100 = growth as untreated, 0 = no growth, -100 = all killed)
# Cond: 10 µM unless noted
Compounds without any hit were thinned out: in the full panel of roughly 83,000, 20% have a hit.
Report as a plain number; the unit % is understood.

Solved entries (count: 4):
State the recorded growth for this entry: CC1=C(C(=O)Nc2ccccc2)C(c2ccc3c(c2)OCCO3)NC(=O)N1 (stereo not given)
101

Queued: COc1ccc(/C(=C2\O[C@@H]([C@H](O)CO)[C@H]3OC(C)(C)O[C@@H]23)c2cc(OC)c(OC)c(OC)c2)cc1O
106

Queued: COc1cccc(CCC2C(=O)CCCC2=O)c1
102

Queued: COC(=O)[C@]1(CCSC)N[C@H](c2cn(-c3ccccc3)nc2C)[C@@H]2C(=O)N(c3ccc(C)cc3)C(=O)[C@@H]21
98.5

Please find the next compound below.
State the recorded growth for this entry: O=C(Nc1ncc([N+](=O)[O-])s1)c1cccc([N+](=O)[O-])c1
64.1
